test_method_notes: soluble fraction after stress (log2 fold change); higher = more stays soluble; pooled small domains, quantitative proteomics
condition_description: stress: 50 degC
value_type: soluble fraction (log2)

For the sequence `HMAEQVLHQKLAARRKELNSLVAQVARVRGIPHSHVHSGLRREAGGPPLAQATTDQVEARISLARKWLRA` , give its reported soluble fraction (log2).
-0.728

Give recorded soluble fraction (log2). `HMSEVPAAVLVTGGSINLREAPSTDATIIDVAQVGEKMTVLAEKNSWYQVSRGGRNVWVASWVVDPLT`
0.208

Fill in reported soluble fraction (log2) for this entry: `HMKISIDNPSVLLDKLATLFPDTSKNKLRKMLTEGRIYVNDNIEHRAKRELINGDTVKILDKTTSKE`
0.0915

Return the recorded soluble fraction (log2) value; entry: `HMSQNVSFTVDSGQAGLRLDVFLSQADPAFSRSQIKYAIEEGDVTVNGKEPKVSQHLKDGDIVELHLE`
-0.0973

###

test_method_notes: soluble fraction after stress (log2 fold change); higher = more stays soluble; pooled small domains, quantitative proteomics
condition_description: stress: 50 degC
Respond with Y for soluble fraction (log2) values of -0.2 and above, N for values below.

Could you verify whether the entry `HMRKLTDRQRQILDLIKTIIAETGAPPTRAEISTALGFKSANAAQEHLQALAQKGMIDLVSGASRGIRLRG` shows soluble fraction (log2) of no less than -0.2?
N

Does soluble fraction (log2) meet or surpass -0.2 for `HMTTVKDRVYEILKREIVLGKLKPGEPINIAVLSTKLNISSAPLREALNMLSRDGLVTLNPRKHAAVSE` ?
N

Is soluble fraction (log2) for `HMHDYNTIVGVIEMRDKNIPLTSIRQRYGIGYSGIDLILTRYKDSGLTLKEFLALDPSQAEELIYPPK` at or above -0.2?
N

Please indicate if the recorded soluble fraction (log2) for `HMQSREISYSDFVASVERGEVATVILDGENIRFKGGDNVEYVTVRPADTNVTDLLIENQVVVRAEK` meets or exceeds -0.2.
Y

State whether the measured soluble fraction (log2) reaches -0.2, counting equality as reaching it, for `HMNPIDAHVGARVRLRRMLIGMSQEKLGELLGVTFQQIQKYEKGANRIGASRLYEVSRVLDVPVQYFFDDM`
N

Hi team, for `HMATTIEAPMPGKILDVKVNPGQAVSYGQVVLTMEAMKMETEIVAPADGTVASVLVKSGDMVETGAALVSL` , is the recorded soluble fraction (log2) at or above -0.2?
Y

soluble fraction (log2) >= -0.2 for `HMAQTTKWREIHKVKRKETIFGIARDNGLTVDELIEANPEMTKPGYELKKGDFIYIPFPSKNIDTNAGTQT` ?
Y

###

test_method_notes: soluble fraction after stress (log2 fold change); higher = more stays soluble; pooled small domains, quantitative proteomics
condition_description: stress: 50 degC
Please provide measured soluble fraction (log2) for the entries that follow.

Dear colleague, please send me the reported soluble fraction (log2) for `HMSRELVILGNSMLNNALKAFHVSPASIKKKHWDKLILDYHLESKNNILIDIALGKRINVMVAHQLTSIID` when you can.
0.56

Please supply the value of reported soluble fraction (log2) for the item `HMTQFSASSERAGAGGAYRTTLRAMEQNGDLLQISILLPDAVTAKHAATVWPERAQAIYTAILSELLK`
-0.446

Input `HMRFDADELQKAYDLFDADENTPFKTIKQAYYALARRHHPDKNGDQEYFKVINNAFQLIQEHRRRRDN` , output reported soluble fraction (log2).
-0.246

Return value of soluble fraction (log2) for input `HMDDHKQHLIDFYHSRKRMPTYTEMMALFGYKSKNAVARLVEKMIDAGIVTKDKLGKLLPTTLFDSVPL` , no commentary.
0.0577
